System: EKVX
Test: NCI tumour cell line growth inhibition, 48 h
Active and inactive are the calls of the source. No stated cut-off is given here; in the data, active = GI50 up to about 1.1 µM and inactive = higher.
Response enum: active, inactive

Prompt: State the result this test recorded for O=[N+]([O-])c1cccc2nc3ccccc3c(NCCCNc3c4ccccc4nc4cccc([N+](=O)[O-])c34)c12 .
Response: active

Prompt: Please state the recorded outcome for this molecule: Cc1c([C@H](C)[C@@H]2NC[C@@H](C)C[C@H]2O)ccc2c1C[C@H]1[C@H]2CC=C2C[C@@H](O)CC[C@@]21C
Response: inactive

Prompt: Hello, I am checking results. What call was entered for Cc1ccc2c(c1)[n+]([O-])c(N)n[n+]2[O-] ?
Response: inactive

Prompt: Just curious, what result did C=C1C(C[C@@H]2O[C@H]3C[C@H]4O[C@@]5(C[C@@H]6O[C@]7(C[C@H](C)[C@@H]8O[C@@H]9CC(C(O)CO)O[C@@H]9C[C@@H]8O7)C[C@H](C)[C@@H]6O5)C[C@H]4O[C@H]3[C@H](C)[C@H]2O)O[C@@H](CC[C@@H]2O[C@@H](CC[C@@]34CC5O[C@H]6C(O[C@H]7CC[C@H](CC(=O)OC)O[C@@H]7[C@@H]6O3)[C@H]5O4)CC2=C)C[C@H]1C (some centres not stated) get here?
Response: active

Prompt: What did the test return for CC(C)NC(=O)OCc1c(COC(=O)NC(C)C)n(C)c2c1ccc1sccc12 ?
Response: inactive

Prompt: // outcome(item) with item = O=C1C(NCCc2ccc(O)c([N+](=O)[O-])c2)=CC(=O)c2[nH]cnc21
Response: inactive

Prompt: What is the recorded call for this molecule in the test? CCCNC(=O)c1cc(OC)c(OC)cc1NC(=O)C12CC3CC(CC(C3)C1)C2
Response: inactive
